Values compiled from patent US20140018380A1.

biological target: human GPR119 (Homo sapiens, UniProt Q8TDV5); experiment: cAMP assay (HTRF) with human GPR119 stable transfected CHO cells; settings: functional agonist activity; intracellular cAMP (HTRF) in human GPR119 stable transfected CHO cells, 30 min at 37° C.
Sequence (Q8TDV5 whole entry): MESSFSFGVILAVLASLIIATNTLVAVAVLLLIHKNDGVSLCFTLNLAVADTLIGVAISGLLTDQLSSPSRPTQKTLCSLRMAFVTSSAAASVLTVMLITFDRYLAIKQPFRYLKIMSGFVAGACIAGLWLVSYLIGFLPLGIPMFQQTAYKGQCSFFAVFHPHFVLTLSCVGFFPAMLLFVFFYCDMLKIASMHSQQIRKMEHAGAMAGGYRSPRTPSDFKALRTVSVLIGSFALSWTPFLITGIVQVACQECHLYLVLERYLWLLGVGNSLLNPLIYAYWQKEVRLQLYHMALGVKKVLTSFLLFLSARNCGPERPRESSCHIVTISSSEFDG
Overview of recorded EC50 for various molecules

Known results for molecules:
1. CCc1cnc(N2CCC(n3ccc4cc(-c5ccc(-n6cnnn6)cc5)ccc43)CC2)nc1
< 300 nM
2. CCc1cnc(N2CCC(n3ccc4cc(-c5ccc(-n6cnnn6)cc5)c(F)cc43)CC2)nc1
< 2000 nM
3. CCc1cnc(N2CCC(n3ncc4cc(-c5ccc(-n6cnnn6)cc5)c(F)cc43)CC2)nc1
< 50 nM
4. CCc1cnc(N2CCC(n3ccc4cc(-c5ccc(C#N)cc5)c(F)cc43)CC2)nc1
< 500 nM
5. CCc1cnc(N2CCC(n3cc(Cl)c4cc(-c5ccc(S(C)(=O)=O)cc5)ccc43)CC2)nc1
< 500 nM

Next, consider the following molecule.
Would you kindly share the measured EC50 for CCc1cnc(N2CCC(n3nnc4cc(-c5ccc(-n6cnnn6)cc5)cnc43)CC2)nc1 ? < 500 nM

----------
Overview of recorded EC50 for various molecules
target: human GPR119 (Homo sapiens, UniProt Q8TDV5); test: cAMP assay (HTRF) with human GPR119 stable transfected CHO cells; conditions: functional agonist activity; intracellular cAMP (HTRF) in human GPR119 stable transfected CHO cells, 30 min at 37° C.

Known results for molecules:
1) CC(C)c1noc(N2CCC(n3ccc4cc(-c5ccc(S(C)(=O)=O)cc5)c(F)cc43)CC2)n1
< 100 nM
2) CC(C)(C)OC(=O)N1CCC(n2ncc3cc(-c4ccc(S(C)(=O)=O)cc4)ccc32)CC1
< 300 nM
3) CCc1cnc(N2CCC(n3ccc4cc(-c5ccc(S(C)(=O)=O)cc5)ncc43)CC2)nc1
< 200 nM
4) CCc1cnc(N2CCC(n3ccc4cc(-c5ccc(S(C)(=O)=O)cc5F)ccc43)CC2)nc1
< 500 nM

Request body: readout EC50, system human GPR119 (Homo sapiens, UniProt Q8TDV5), query CCc1cnc(N2CCC(n3ccc4cc(-c5ccc(NS(C)(=O)=O)cc5)c(F)cc43)CC2)nc1 . Return the value. < 1000 nM

Request body: readout EC50, system human GPR119 (Homo sapiens, UniProt Q8TDV5), query CCc1cnc(N2CCC(n3cc(C)c4cc(-c5ccc(S(C)(=O)=O)cc5)ccc43)CC2)nc1 . Return the value. < 1000 nM

Request body: readout EC50, system human GPR119 (Homo sapiens, UniProt Q8TDV5), query CC(C)(C)OC(=O)N1CCC(n2ccc3cc(-c4ccc(S(C)(=O)=O)cc4)ccc32)CC1 . Return the value. < 200 nM

Request body: readout EC50, system human GPR119 (Homo sapiens, UniProt Q8TDV5), query CC(C)(C)OC(=O)N1CCC(n2ccc3cc(-c4ccc(S(C)(=O)=O)cc4)c(F)cc32)CC1 . Return the value. < 100 nM

Request body: readout EC50, system human GPR119 (Homo sapiens, UniProt Q8TDV5), query CCc1cnc(N2CCC(n3ccc4cc(-c5ccc(S(C)(=O)=O)cc5)ccc43)CC2)nc1 . Return the value. < 300 nM

Request body: readout EC50, system human GPR119 (Homo sapiens, UniProt Q8TDV5), query CCc1cnc(N2CCC(n3ccc4cc(-c5ccc(S(C)(=O)=O)cc5)c(F)cc43)CC2)nc1 . Return the value. < 100 nM

Request body: readout EC50, system human GPR119 (Homo sapiens, UniProt Q8TDV5), query CCc1cnc(N2CCC(n3ncc4cc(-c5ccc(S(C)(=O)=O)cc5)c(F)cc43)CC2)nc1 . Return the value. < 200 nM

Request body: readout EC50, system human GPR119 (Homo sapiens, UniProt Q8TDV5), query CCc1cnc(N2CCC(n3ccc4cc(-c5ccc(C#N)c(F)c5)c(F)cc43)CC2)nc1 . Return the value. < 500 nM
